# System: formalin-evoked pain behavior
# assay explanation: Formalin-evoked pain behavior (paw licking, early and late phase) in mice
# Type: in vivo, male Swiss mice
# test context: drug injected in the paw (i.pl.) together with formalin; 0-15 min
measurement label: early phase of formalin-evoked pain behavior

Per the record, Cc1c(C(=O)c2cccc3ccccc23)c2cccc3c2n1[C@H](CN1CCOCC1)CO3 [WIN-55212-2] has early phase of formalin-evoked pain behavior of blocked

Per the record, CCCCCCC(C)(C)c1cc(O)c2c(c1)OC(C)(C)[C@@H]1CC=C(CO)C[C@@H]21 [HU-210] has early phase of formalin-evoked pain behavior of blocked
